# credit: the RNAGym collection of RNA variant scans (doi:10.7554/elife.90254)

B1: LINE1-mini (parent)
chain: GGCAGAGCUCAACACAGCGUGGCAAAGUGGCUGUGGCUAGACUGCC

Variants of: B1
Test: self-cleavage, relative activity (ratio to wild type); higher = more cleavage; in vitro, sequencing; the parent is a self-cleaving ribozyme
Known self-cleavage of a selection of variants
READOUT LABEL: self-cleavage

INSERT INTO results (variant, readout_label, experimental_value) VALUES
  ('G33U U38A', 'self-cleavage', 0.08),
  ('C45A C46A', 'self-cleavage', 0.24),
  ('G35U A39G', 'self-cleavage', 0.22),
  ('A12G C37A', 'self-cleavage', 0.04),
  ('A25G C42A', 'self-cleavage', 0.09),
  ('G5A C10U', 'self-cleavage', 0.09),
  ('C10U', 'self-cleavage', 0.34),
  ('A24U G29U', 'self-cleavage', 1.84),
  ('G29A U38G', 'self-cleavage', 0.01),
  ('A12U C46U', 'self-cleavage', 0.27),
  ('A11U C23G', 'self-cleavage', 0.11),
  ('G22C G30A', 'self-cleavage', 0.76),
  ('C15U U20G', 'self-cleavage', 0.49),
  ('C23U A24U', 'self-cleavage', 0.84),
  ('A14C G36A', 'self-cleavage', 0.15),
  ('G21A C37A', 'self-cleavage', 0.08),
  ('U32C U43A', 'self-cleavage', 0.05),
  ('C3G A11G', 'self-cleavage', 0.09),
  ('A11G U34C', 'self-cleavage', 0.03),
  ('U28C C42U', 'self-cleavage', 0.15),
  ('G1U A26G', 'self-cleavage', 0.31),
  ('G5A C46U', 'self-cleavage', 0.12),
  ('C8A A16G', 'self-cleavage', 0.22),
  ('A25C G44C', 'self-cleavage', 0.23),
  ('A14U C42U', 'self-cleavage', 0.2),
  ('G2C G36C', 'self-cleavage', 0.04),
  ('A4G U9A', 'self-cleavage', 0.21),
  ('A11C A16U', 'self-cleavage', 0.02),
  ('C8U C46A', 'self-cleavage', 0.33),
  ('U28A A41U', 'self-cleavage', 0.42),
  ('C13U U20G', 'self-cleavage', 0.1),
  ('G22C C45A', 'self-cleavage', 0.39),
  ('G2A C31G', 'self-cleavage', 0.14),
  ('G19C C45U', 'self-cleavage', 0.79),
  ('C13A C46A', 'self-cleavage', 0.07),
  ('A16U G33A', 'self-cleavage', 0.07),
  ('C23U G36C', 'self-cleavage', 0.07),
  ('A12G C31G', 'self-cleavage', 0.04),
  ('A12G C46U', 'self-cleavage', 0.03),
  ('A24G U43C', 'self-cleavage', 0.2),
  ('A11U U20A', 'self-cleavage', 0.07),
  ('C31G U43G', 'self-cleavage', 0.05),
  ('G2A A25U', 'self-cleavage', 0.65),
  ('G17A U38C', 'self-cleavage', 0.12),
  ('C8G G17U', 'self-cleavage', 0.07),
  ('G17U G35C', 'self-cleavage', 0.18),
  ('A26C C42U', 'self-cleavage', 0.48),
  ('G7C U32C', 'self-cleavage', 0.07),
  ('C15U G21U', 'self-cleavage', 1.46),
  ('G36C C46G', 'self-cleavage', 0.08),
  ('A26U G33U', 'self-cleavage', 0.08),
  ('A12U U28A', 'self-cleavage', 0.2),
  ('C15G G40A', 'self-cleavage', 0.08),
  ('G7C A41U', 'self-cleavage', 0.21),
  ('A26U U34C', 'self-cleavage', 0.18),
  ('A26U C45A', 'self-cleavage', 1.95),
  ('G5C G33A', 'self-cleavage', 0.09),
  ('G5U U9A', 'self-cleavage', 0.36),
  ('G19A G35A', 'self-cleavage', 0.18),
  ('G19U A39C', 'self-cleavage', 0.06),
  ('A12G G44C', 'self-cleavage', 0.03),
  ('A6G G21C', 'self-cleavage', 0.13),
  ('G35A G40A', 'self-cleavage', 0.07),
  ('C15A A41G', 'self-cleavage', 0.06),
  ('G19U G44A', 'self-cleavage', 0.27),
  ('U9A C23A', 'self-cleavage', 0.14),
  ('A12C A25G', 'self-cleavage', 0.02),
  ('U32C C37A', 'self-cleavage', 0.15),
  ('U34A U43A', 'self-cleavage', 0.06),
  ('A16U U34G', 'self-cleavage', 0.02);
